Listing of recorded Percent Effect by entry.
target: AMP-activated protein kinase, AMPK (Homo sapiens) (UniProt P54646+O43741+P54619+Q9UGJ0+Q9Y478+Q13131+Q9UGI9); assay: AMP-dependent Kinase enzyme assay. An in vitro enzyme assay that detects ADP turnover that is directly proportional to AMPK activity. This uses naive AMPK that is activated during the assay with MK-8722; type: functional; set-up: scale not given: direction of the effect not stated beside the values; details: 30 µM
readout.name: Percent Effect (%)

* Cc1nsc(C(=O)NCCc2ccccc2)n1 | 3.51
* COc1cc(F)cc2sc(NC(=O)COCC3CCCO3)nc12 (stereo not drawn) | 1.22
* CN(Cc1cccc(OC(F)(F)F)c1)Cc1cnn(C)c1 | -4.15

###

tested on: Trypanosoma cruzi; test: Trypanosoma cruzi phosphomannomutase and mannose-1-phosphate guanylyltransferase assay; format: functional; parameters: scale not given: direction of the effect not stated beside the values; conditions: 10 µM
We begin with a simple list: items and their reported Percent Effect.
readout.name: Percent Effect (%)

• CCc1ccsc1C(=O)N1CCN(C(=O)CC(F)(F)F)CC1 = 1.68
• CN1CCC(c2ncc3c(n2)CCN(C(=O)CC2C=CCC2)C3)CC1 (stereo unspecified) = -1.58
• O=C(O)c1cc(S(=O)(=O)N2CCOc3ccccc32)ccc1F = 5.54
• Cc1cccc(CN2C[C@@H]3COC[C@]3(CNC(=O)N3CCCC3)C2)n1 = -3.02
• COc1ccccc1CCN(C)C(=O)NC(C)c1nncn1C (stereo unspecified) = -1.21
• CN1CCN(CC2CC2)C(=O)c2cnc(N3CCCC3)nc21 = -1
• Fc1cnc(N2CCOCC3(CCCN(c4nncs4)C3)C2)nc1 (stereo unspecified) = -2.63
• Cc1cc(C)n(CC2CN(Cc3nc(-c4ccco4)no3)CCO2)n1 (stereo unspecified) = 5.78
• CC(C)c1nnc2n1CCN(C(=O)c1ccc3cc[nH]c3c1)C2 = -1.61
• CCc1cc(C(F)(F)F)c2c(C)nn(CC(=O)O)c2n1 = -4.14
• CN(Cc1ccccc1)CC(O)Cn1cnc2ccccc2c1=O (stereo unspecified) = 4.79
• Cc1ccc([C@@H]2CN(C(=O)c3csc(C)n3)C[C@H]2NC(=O)C2CC2)cc1 = 0.097
• CCn1c(Cn2cncn2)nnc1C1CCN(Cc2ccc(C)o2)CC1 = 3.78
• Cc1nc(N2CCCC2)nc2c1CN(C(=O)N1CCOCC1)CC2 = 0.75
• O=C(NCC1CCSCC1)N(CCCO)C1CCc2ccccc21 (stereo unspecified) = -4.02
• Cc1noc(C)c1CN(C)C(=O)NC1CCN(c2ncccn2)CC1 = 11.7
• CCc1[nH]ncc1C(=O)N1CCCC(n2ccnc2C(C)C)C1 (stereo unspecified) = 0
• O=C(c1ccccn1)N1Cc2nccn2CC(CN2CCOCC2)C1 (stereo unspecified) = -2.63
• Cc1ccc(F)cc1S(=O)(=O)NCc1cccnc1N(C)C = -0.373
• CCS(=O)(=O)c1ncc(CN(C)Cc2ccccn2)n1CCOC = 5.33
• CN(C)S(=O)(=O)N1CC[C@]2(C[C@H](Oc3ncccc3F)CO2)C1 = 0.0974
• Cc1nc(CN(C)C2CCN(Cc3ccc4ccccc4n3)C2)no1 (stereo unspecified) = 7.28
• CC(CC#N)NC(=O)c1cc(Br)c2c(c1)OCCO2 (stereo unspecified) = -4.22
• c1cc(-c2noc(CN3CCn4c(nnc4C4CC4)C3)n2)co1 = 4.04
• COc1cccc2c1OCC(C(=O)N1CCC(N3CCOC3=O)CC1)C2 (stereo unspecified) = 4.95
• CC1(C)OCC(CNC(=O)c2cnn(-c3ccc(Cl)cc3)c2N)O1 (stereo unspecified) = -2.76
• COc1ccc(F)cc1C(=O)N(C)Cc1cc(C)on1 = -1.22
• Cc1cccc(CN2CCc3nnc(CO)n3CC2)n1 = 0
• O=C(N1CCCC1)N1CCC2(CCCN(CCOc3ccccc3)C2)C1 (stereo unspecified) = -2.63
• CCc1nc(C2CCCN2C(=O)c2ccoc2C)no1 (stereo unspecified) = 0.469
• O=C(NCCc1cccnc1)N1CCCC1c1ccsc1 (stereo unspecified) = 5.73
• Cc1cnn(CC2CCCN2C(=O)c2cc3c(F)cccc3[nH]2)c1 (stereo unspecified) = -5.6
• Cc1cc(N2CCC(NC(=O)C3CC3)CC2)nc(-c2ccncc2)n1 = 2.98
• COc1c(C2CCCN2C(=O)c2cncnc2C)c(C)nn1C (stereo unspecified) = -7.46
• CS(=O)(=O)NCC1CCCN(C(=O)COCC(F)(F)F)C1 (stereo unspecified) = 0.845
• CN(C)c1cc(C(=O)N2CCCN(Cc3cscn3)CC2)ccn1 = 2.05
• Cc1nc(C)n(CC2CCCN2Cc2nc3ccccc3n2C)n1 (stereo unspecified) = 1.81
• c1cnc(OCc2nnc3n2CCN(CC2CC2)C3)nc1 = 2.04
• Cc1cc(CN(C)C(=O)c2ccnc(N(C)C)c2)no1 = -5.82
• COc1ccc(CN2CCC3(CC2)CCN(CC2CC2)C3=O)cc1 = -3.56
• COc1ncc(C2CC(=O)NCc3nc4ccccn4c32)cn1 (stereo unspecified) = -1.46
